# measurementProtocol: Solubility by shake flask method (24 h, HPLC)
# Assay type: physicochemical
# testContext: phosphate buffer, pH 6.5, aqueous buffer, thermodynamic from solid, Phosphate buffer (50 mM), pH 6.5, RT, n=3 mean, read-out: Solubility Measurements (mean value) (24 h)
measuredProperty: solubility at 24 h

What the record says about C[C@H]1c2cccc(C(C)(C)O)c2C[C@H](COP(=O)(O)O)N1C(=O)Cc1c(Cl)ccc2c1c(Cl)nn2C [(II-Ax)] : solubility at 24 h is > 5 mg/mL

C[C@H]1c2cccc(C(C)(C)O)c2C[C@H](CO)N1C(=O)Cc1c(Cl)ccc2c1c(Cl)nn2C [(Ia), reference compound] yielded solubility at 24 h of < 0.001 mg/mL

CC(C)[C@H](N)C(=O)OC[C@H]1Cc2c(cccc2C(C)(C)O)[C@H](C)N1C(=O)Cc1c(Cl)ccc2c1c(Cl)nn2C [(II-B)] yielded solubility at 24 h of ~0.07 mg/mL
